B1: tRNA (parent)
chain: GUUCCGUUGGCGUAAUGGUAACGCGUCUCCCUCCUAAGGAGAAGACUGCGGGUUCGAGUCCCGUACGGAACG

variants of: B1; experiment: yeast fitness, log relative to wild type (ln ratio); higher = fitter; tRNA-Arg(CCU), competitive growth, 37 C, 1 M NaCl
Response field class: enum, chosen by comparing yeast fitness (ln) against A = under -0.3, B = from -0.3 up to -0.2, C = -0.2 and over

Worked cases, answers included:
>>> df
                              mutation_list  class_assignment
0         U2G C27U A43C C46U C66U A69G A70G                 B
1                         G1A G6A C27U C46U                 C
2  G1A U2G G6U C27U C46U C66A A69G A70U C71U                 A

Kindly review the next variant as well.
Class label required: G1A G6A A69G A70U C
